Tested on: Escherichia coli
Experiment: Antibacterial activity against tolC efflux pump deficient Escherichia coli W3110 assessed as growth inhibition after 18 to 24 hrs by CLSI broth microdilution method
Format: functional
Please respond with Satisfied when measured MIC is strictly beneath 0.3 µg/mL, and with Not satisfied in all other cases.

molecular string	label
CCNC(=O)Nc1cc(-c2ccncc2)c(-c2cncc(C(=O)O)c2)cn1	Not satisfied
CCNC(=O)Nc1cc(-c2cccnc2)c(-c2cncc(C(=O)O)c2)cn1	Not satisfied
CCNC(=O)Nc1cc(-c2nc(C(F)(F)F)cs2)c(-c2cncc(-c3nc(C)no3)c2)cn1	Not satisfied
CCNC(=O)Nc1cc(-c2ccccc2)c(-c2cncc(C(=O)O)c2)cn1	Not satisfied
CCNC(=O)Nc1cc(-c2nc(C(F)(F)F)cs2)c(-c2cncc(C#N)c2)cn1	Not satisfied
CCNC(=O)Nc1cc(-c2nc(C(F)(F)F)cs2)c(-c2cncc(-c3nnc(C)o3)c2)cn1	Satisfied
CCNC(=O)Nc1cc(-c2nc(C(F)(F)F)cs2)c(-c2cncc(C(N)=O)c2)cn1	Not satisfied
CCNC(=O)Nc1cc(-c2nc(C(F)(F)F)cs2)c(-c2cncc(-c3n[nH]c(=O)o3)c2)cn1	Satisfied
CCNC(=O)Nc1cc(-c2nc(C(F)(F)F)cs2)c(-c2cncc(-c3nnn[nH]3)c2)cn1	Not satisfied

Now for a further compound.
Given CCNC(=O)Nc1cc(-c2nc(C(F)(F)F)cs2)c(-c2cncc(-c3noc(=O)[nH]3)c2)cn1 , is recorded MIC strictly lower than 0.3 µg/mL? Not satisfied

###

Biological target: DNA gyrase subunit B (Staphylococcus aureus, UniProt P0A0K8)
Sequence (P0A0K8 whole entry): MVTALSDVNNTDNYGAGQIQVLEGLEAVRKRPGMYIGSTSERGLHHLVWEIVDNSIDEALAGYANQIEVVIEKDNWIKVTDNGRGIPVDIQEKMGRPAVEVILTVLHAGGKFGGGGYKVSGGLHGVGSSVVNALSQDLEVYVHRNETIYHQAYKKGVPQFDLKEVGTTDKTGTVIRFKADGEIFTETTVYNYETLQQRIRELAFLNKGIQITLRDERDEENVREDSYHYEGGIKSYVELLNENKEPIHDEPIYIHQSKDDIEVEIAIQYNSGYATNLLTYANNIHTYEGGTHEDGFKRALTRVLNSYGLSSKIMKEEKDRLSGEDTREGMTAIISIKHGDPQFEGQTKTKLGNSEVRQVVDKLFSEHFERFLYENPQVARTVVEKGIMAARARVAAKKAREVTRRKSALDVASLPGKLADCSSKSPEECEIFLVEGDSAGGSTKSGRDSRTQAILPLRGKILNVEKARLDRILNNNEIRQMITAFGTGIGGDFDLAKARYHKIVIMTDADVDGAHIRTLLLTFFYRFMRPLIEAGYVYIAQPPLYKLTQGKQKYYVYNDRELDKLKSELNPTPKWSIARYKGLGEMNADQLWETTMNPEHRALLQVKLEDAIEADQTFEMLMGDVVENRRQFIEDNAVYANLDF
Assay: Inhibition of ATPase activity in Staphylococcus aureus GyrB tetramer in presence of Escherichia coli GyrA by ammonium molybdate/malachite green-based absorbance assay
pIC50: −log10 of the molar value.
Here, each record is paired with measured pIC50 data.

Answered cases to consult:
molecular string	target desc	pIC50
CCNC(=O)Nc1cc(-c2nc(C(F)(F)F)cs2)c(-c2ncc(C(=O)O)s2)cn1	DNA gyrase subunit B (Staphylococcus aureus, UniProt P0A0K8)	> 8.00
CCNC(=O)Nc1cc(-c2nc(C(F)(F)F)cs2)c(-c2cncc(C(=O)O)c2)cn1	DNA gyrase subunit B (Staphylococcus aureus, UniProt P0A0K8)	> 8.00
CCNC(=O)Nc1ccccc1	DNA gyrase subunit B (Staphylococcus aureus, UniProt P0A0K8)	< 3.00
CCNC(=O)Nc1cc(-c2nc(C(F)(F)F)cs2)c(-c2cncc(-c3nnn[nH]3)c2)cn1	DNA gyrase subunit B (Staphylococcus aureus, UniProt P0A0K8)	> 8.00
CCOC(=O)Nc1ccccn1	DNA gyrase subunit B (Staphylococcus aureus, UniProt P0A0K8)	< 3.00
CCNC(=O)Nc1cc(-c2nc(C(F)(F)F)cs2)c(-c2cncc(C#N)c2)cn1	DNA gyrase subunit B (Staphylococcus aureus, UniProt P0A0K8)	> 8.00
CCNC(=O)Nc1cc(-c2nc(C(F)(F)F)cs2)c(-c2cncc(C(N)=O)c2)cn1	DNA gyrase subunit B (Staphylococcus aureus, UniProt P0A0K8)	> 8.00

Attention now turns to another entry.
Measured pIC50, O=C(NCC(F)(F)F)Nc1ccccn1 : < 3.00

###

Target: DNA gyrase subunit B (Staphylococcus aureus, UniProt P0A0K8)
Experiment: Inhibition of ATPase activity in Staphylococcus aureus GyrB tetramer in presence of Escherichia coli GyrA by ammonium molybdate/malachite green-based absorbance assay
pIC50: −log10 of the molar value.
Here, each record is paired with measured pIC50 data.

molecular string	readout name	observed measurement
CCNC(=O)Nc1cc(-c2nc(C(F)(F)F)cs2)c(-c2nc3cccc(C(=O)O)c3s2)cn1	pIC50	> 8.00
CCNC(=O)Nc1cc(-c2nc(C(F)(F)F)cs2)c(-c2cncc(-c3nnc(C)o3)c2)cn1	pIC50	> 8.00

Attention now turns to another entry.
Measured pIC50, CCNC(=O)Nc1cc(-c2nc(C(F)(F)F)cs2)c(-c2cncc(-c3n[nH]c(=O)o3)c2)cn1 : > 8.00

###

Here, each record is paired with measured MIC data.
Tested on: Moraxella catarrhalis
Experiment: Antibacterial activity against wild type Moraxella catarrhalis ATCC 43617 assessed as growth inhibition after 18 to 24 hrs by CLSI broth microdilution method
Assay type: functional

Answered cases to consult:
molecular string	target desc	observed measurement
CCNC(=O)Nc1ccc(-c2cncc(C(=O)O)c2)cn1	Moraxella catarrhalis	> 64 µg/mL
CCNC(=O)Nc1cc(-c2ccncc2)c(-c2cncc(C(=O)O)c2)cn1	Moraxella catarrhalis	> 9 µg/mL
CCNC(=O)Nc1ccc(-c2nc3cccc(C(N)=O)c3s2)cn1	Moraxella catarrhalis	> 64 µg/mL

Attention now turns to another entry.
Measured MIC, CCNC(=O)Nc1cc(Cl)c(-c2cncc(C(=O)O)c2)cn1 : > 64 µg/mL
